assay: NCI Yeast Anticancer Drug Screen. Data for the mlh1 rad18 strain (AID 175); details: S. cerevisiae mlh1 rad18 strain growth inhibition, hits give high values; at 50.0 µM unless noted
About 79,000 compounds went through this panel and 15% of them were active in at least one assay; those are over-represented in the sample as a whole.
experimental_endpoint: growth inhibition (%)
Numbers only, in %.

Go through the list and state growth inhibition for each entry.
1. COC(=O)c1cc(OCC#CC#CCOc2ccc(O)c(C(=O)OC)c2)ccc1O
2. c1cc2c(cc1CSCc1c(CSCc3ccc4c(c3)OCO4)c(CSCc3ccc4c(c3)OCO4)c(CSCc3ccc4c(c3)OCO4)c(CSCc3ccc4c(c3)OCO4)c1CSCc1ccc3c(c1)OCO3)OCO2
3. O=C(O)CN(CCO)CCN(CC(=O)O)CC(=O)O.[Fe+2]
4. CSc1ccc(C(C)=O)cc1
5. CCCCNC(=S)NNC(=O)c1ccncc1

1. 14.1
2. 9.3
3. 2.25
4. 3
5. 3.45

For each of the compounds below, state growth inhibition.
1. O=C(O)CC(CS(=O)O)C(=O)O (centres undefined)
2. CN(C)C(=S)/N=c1\ssc(=S)n1Cc1ccccn1
3. O=C(O)COc1ccc([N+](=O)[O-])cc1[N+](=O)[O-]

1: -3.7; 2: -10.9; 3: 16.6
